target: (NANP)6 (Plasmodium falciparum); test: SPR, antibody on chip
# log10(Kd) per record follows
MEASUREMENT TYPE: log10(Kd) (log10 of the value in nM)

INSERT INTO assay_data (binder, observed_result) VALUES
  ('AB-007037 (antibody, V domains shown) VH: QMQLVESGGGVVQPGRSLRLSCTASGFTFSTYAMHWVRQSPGQGLQWVAVISYHSTNKYYEDSVKGRFTISRDNSKNTLYLQMNSLRAEDTAVYYCARDGYSSSFFDFWGQGTLVTVSS VL: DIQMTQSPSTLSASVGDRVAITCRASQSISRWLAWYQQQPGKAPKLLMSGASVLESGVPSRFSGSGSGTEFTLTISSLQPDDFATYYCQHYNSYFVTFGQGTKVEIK', 0.24),
  ('AB-007031 (antibody, V domains shown) VH: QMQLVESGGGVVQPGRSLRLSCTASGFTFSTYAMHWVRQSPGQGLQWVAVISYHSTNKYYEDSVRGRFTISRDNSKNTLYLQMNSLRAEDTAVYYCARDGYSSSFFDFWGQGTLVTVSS VL: DIQMTQSPSTLSASVGDRVAITCRASQSISRWLAWYQQQPGKAPKLLISGASVLESGVPSRFSGSGSGTEFTLTISSLQPDDFATYYCQHYNSYFVTFGQGTKVEIK', -1.42),
  ('AB-007040 (antibody, V domains shown) VH: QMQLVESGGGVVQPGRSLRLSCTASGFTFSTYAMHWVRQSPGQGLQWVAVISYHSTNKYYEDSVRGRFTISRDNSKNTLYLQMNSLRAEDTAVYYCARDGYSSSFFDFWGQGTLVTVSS VL: DIQMTQSPSTLSASVGDRVAITCRASQSISRWLAWYQQQPGKAPKLLMSGASVLESGVPSRFSGSGSGTEFTLTISSLQPDDFATYYCQHYNSYYVTFGQGTKVEIK', -0.46),
  ('AB-007052 (antibody, V domains shown) VH: QMQLVESGGGVVQPGRSLRLSCTASGFTFSTYAMHWVRQSPGQGLQWVAVISYHSNNKYYEDSVRGRFTISRDNSKNTLYLQMNSLRAEDTAVYYCARDGYSSSFFDFWGQGTLVTVSS VL: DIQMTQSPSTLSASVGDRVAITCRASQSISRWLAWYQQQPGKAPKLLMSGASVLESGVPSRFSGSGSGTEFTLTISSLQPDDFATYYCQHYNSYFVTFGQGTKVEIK', -1.35),
  ('AB-007051 (antibody, V domains shown) VH: QMQLVESGGGVVQPGRSLRLSCTASGFTFSTYAMHWVRQSPGQGLQWVAVISYHSRNKYYEDSVRGRFTISRDNSKNTLYLQMNSLRAEDTAVYYCARDGYSSSFFDFWGQGTLVTVSS VL: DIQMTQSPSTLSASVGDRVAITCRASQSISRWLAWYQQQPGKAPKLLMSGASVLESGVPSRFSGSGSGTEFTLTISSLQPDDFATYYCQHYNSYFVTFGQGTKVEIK', -0.29),
  ('AB-007054 (antibody, V domains shown) VH: QMQLVESGGGVVQPGRSLRLSCTASGFTFSTYAMHWVRQSPGQGLQWVAVISYHSTNKYYEDSVRGRFTISRDNSKNTLYLQMNSLRAEDTAVYYCARDGYASSFFDFWGQGTLVTVSS VL: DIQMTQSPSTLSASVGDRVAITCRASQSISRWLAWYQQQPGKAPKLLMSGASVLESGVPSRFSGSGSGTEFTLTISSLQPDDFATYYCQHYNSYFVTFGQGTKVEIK', -1.26),
  ('AB-007032 (antibody, V domains shown) VH: QVQLVESGGGVVQPGRSLRLSCAASGFTFSTYAMHWVRQAPGQGLQWVAVISYHSTNKYYEDSVRGRFTISRDNSKNTLYLQMNSLRAEDTAVYYCARDGYSSSFFDFWGQGTLVTVSS VL: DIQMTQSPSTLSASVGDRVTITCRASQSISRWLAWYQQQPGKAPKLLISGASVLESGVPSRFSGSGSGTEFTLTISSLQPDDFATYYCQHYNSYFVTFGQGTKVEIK', 0.29),
  ('AB-007073 (antibody, V domains shown) VH: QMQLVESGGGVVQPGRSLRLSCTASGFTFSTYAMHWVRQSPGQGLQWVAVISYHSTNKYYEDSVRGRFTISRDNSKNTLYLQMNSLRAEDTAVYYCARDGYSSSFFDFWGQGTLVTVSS VL: DIQMTQSPSTLSASVGDRVAITCRASQSISRWLAWYQQQPGKAPKLLMSGASVLESGVPSRFSGSGSGTEFTLTISSLQPDDFATYYCQHYNSHFVTFGQGTKVEIK', -0.06);
